Target: human LXRβ (Homo sapiens)
Construct: expressed in transfected cells; host or cells: HEK293 cells (ATCC CRL-1573), transient transfection with pFA-hLXRβ/GAL4 and pUAS
Sequence (P55055 222-460 limits assumed): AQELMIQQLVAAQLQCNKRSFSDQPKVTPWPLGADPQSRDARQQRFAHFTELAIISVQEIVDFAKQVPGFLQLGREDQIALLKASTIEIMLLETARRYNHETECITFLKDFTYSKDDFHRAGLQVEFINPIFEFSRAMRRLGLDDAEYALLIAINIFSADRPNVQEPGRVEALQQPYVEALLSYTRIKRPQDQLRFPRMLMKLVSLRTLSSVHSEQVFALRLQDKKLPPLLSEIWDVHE
Test: Assay for Transcriptional Activity of LXRβ (GAL4-hLXRβ LBD luciferase reporter, transient transfection)
Format: cell-based
Conditions: fold value in comparison with the control (DMSO-treated group); HEK293 cells transfected with pFA-hLXRβ/GAL4 and pUAS; 24 hours
ASSAY READOUT: Emax (fold)

# annotated cases, reported Emax shown
| COMPOUND | READOUT NUMBER |
| --- | --- |
| CC(C)S(=O)(=O)N1CCN(c2ccc(C3CC(C(O)(C(F)(F)F)C(F)(F)F)=NN3c3ccccc3Cl)cc2)CC1 (stereo not shown) [Example 314] | 59 |
| CS(=O)(=O)c1ccc(-c2ccc(F)c(C3CC(C(F)(F)C(F)(F)F)=NN3c3ccc(F)cc3F)c2)cn1 (stereo not shown) [Example 142] | 73 |
| OC(C1=NN(c2ccccc2Cl)C(c2ccc(-c3cccnc3)cc2)C1)(C(F)(F)F)C(F)(F)F (stereo not shown) [Example 277] | 65 |
| CS(=O)(=O)c1ccc(-c2cc(C3CC(C(F)(F)C(F)(F)F)=NN3c3ccc(F)cc3F)ccn2)cn1 (stereo not shown) [Example 189] | 56 |
| CS(=O)(=O)N1CCN(c2ccnc(C3CC(C(F)(F)C(F)(F)F)=NN3c3ccc(F)cc3F)c2)CC1 (stereo not shown) [Example 183] | 79 |

A: CS(=O)(=O)c1ccc(-c2cncc(C3CC(C(F)(F)C(F)(F)F)=NN3c3ccc(F)cc3F)c2)cn1 (stereo not shown) [Example 166]
B: Cc1ncccc1-c1cccc(C2CC(C(F)(F)C(F)(F)F)=NN2c2ccc(F)cc2F)c1 (stereo not shown) [Example 71]
input: Which shows the larger Emax value: A or B ? Kindly give the label for the entry you pick.
output: A
